MEASURED ATTRIBUTE: MIC (µg/mL)
Give the value in µg/mL but do not write µg/mL after it.

Query the reported MIC for Trichophyton asteroides; item: O=S1OC(c2ccc(Cl)cc2Cl)C(Cn2cncn2)(c2ccc(Cl)cc2)O1 (single isomer, unassigned) [Compound 27B]
0.1

# value lookup — system Trichophyton asteroides, readout MIC, item CCCCC1OC(=O)OC1(Cn1cncn1)c1ccc(Cl)cc1Cl (stereo not shown) [Compound 4]
0.2

Enter reported MIC observed with Trichophyton asteroides for CCCC1OC(=O)OC1(Cn1cncn1)c1ccc(Cl)cc1Cl (stereo not shown) [Compound 12]
1.6

Which MIC is reported with Trichophyton asteroides for this entry: Cc1ccc(C2OC(=O)OC2(Cn2cncn2)c2ccccc2Cl)cc1 (stereo not shown) [Compound 15] ?
3.1

Return MIC measured with Trichophyton asteroides given this compound: Fc1ccc(C2OCOC2(Cn2cncn2)c2ccc(Cl)cc2Cl)cc1 (stereo not shown) [Compound 34]
0.1

Lab note: need MIC with Trichophyton asteroides for entry O=C1OC(c2ccc(F)cc2)C(Cn2cncn2)(c2ccc(Cl)cc2Cl)O1 (stereo not shown) [Compound 1] , please look it up.
0.1

So what MIC did CC1(C)OC(c2ccc(Cl)cc2Cl)C(Cn2cncn2)(c2ccc(Cl)cc2)O1 (stereo not shown) [Compound 39] get with Trichophyton asteroides?
0.8

Write down the reported MIC of O=C1OC(c2ccccc2)C(Cn2cncn2)(c2ccc(Cl)cc2Cl)O1 (stereo not shown) [Compound 3] , test system: Trichophyton asteroides.
0.1

Form entry - test system: Trichophyton asteroides; read-out: MIC; compound: CCCC1OCOC1(Cn1cncn1)c1ccc(Cl)cc1 (stereo not shown) [Compound 33]
0.2

Which MIC is reported with Trichophyton asteroides for this entry: O=C1OC(c2ccccc2)C(Cn2ccnc2)(c2ccc(Cl)cc2Cl)O1 (stereo not shown) [Compound 23] ?
0.1

Report MIC for O=C1OC(c2ccc(F)cc2)C(Cn2cncn2)(c2ccc(F)cc2)O1 (stereo not shown) [Compound 8] tested on Trichophyton asteroides.
3.1

Recall the recorded MIC for O=C1OC(c2ccc(Cl)cc2)C(Cn2cncn2)(c2ccc(Cl)cc2Cl)O1 (single isomer, unassigned) [Compound 19] with Trichophyton asteroides and state it.
0.2

Request body: readout MIC, system Trichophyton asteroides, query CC(C)C1OC(=O)OC1(Cn1cncn1)c1ccc(Cl)cc1Cl (stereo not shown) [Compound 2] . Return the value.
3.1
